# target.or.system: T1, SARS-CoV-2 receptor binding domain (RBD), wild type, His-tagged (SARS-CoV-2, UniProt P0DTC2 319-541)
# T1 construct: domain: RBD; also called His-tagged RBD; BEI NR52309
# experimental.protocol: BLI competition on His-tagged RBD, after 1st Ab 324
I'd be grateful if you could share measured RBD binding of 2nd Ab after 1st Ab (heat map) for these entries.

Example results:
binder	readout.value
mAb 52 (antibody, V domains shown, also called IgG 52; Antibody 52) VH: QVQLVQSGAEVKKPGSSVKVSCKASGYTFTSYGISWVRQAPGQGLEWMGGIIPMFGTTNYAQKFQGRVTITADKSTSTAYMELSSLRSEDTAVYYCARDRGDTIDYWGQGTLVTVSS VL: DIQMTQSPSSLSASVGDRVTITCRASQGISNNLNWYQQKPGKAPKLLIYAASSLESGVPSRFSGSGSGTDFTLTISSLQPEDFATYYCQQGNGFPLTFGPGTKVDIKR	1.5
mAb 324 (antibody, V domains shown, also called IgG 324; Antibody 324) VH: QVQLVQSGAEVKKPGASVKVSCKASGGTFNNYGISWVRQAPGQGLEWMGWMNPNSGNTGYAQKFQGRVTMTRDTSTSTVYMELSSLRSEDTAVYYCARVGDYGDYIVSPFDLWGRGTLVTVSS VL: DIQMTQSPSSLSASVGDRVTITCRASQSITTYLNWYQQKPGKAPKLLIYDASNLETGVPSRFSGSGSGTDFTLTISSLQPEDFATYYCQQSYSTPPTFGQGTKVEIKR	0.4
mAb 82 (antibody, V domains shown, also called IgG 82; Antibody 82) VH: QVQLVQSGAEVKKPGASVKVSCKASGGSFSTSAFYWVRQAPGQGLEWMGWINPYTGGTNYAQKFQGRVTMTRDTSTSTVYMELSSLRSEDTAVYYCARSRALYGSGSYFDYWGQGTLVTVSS VL: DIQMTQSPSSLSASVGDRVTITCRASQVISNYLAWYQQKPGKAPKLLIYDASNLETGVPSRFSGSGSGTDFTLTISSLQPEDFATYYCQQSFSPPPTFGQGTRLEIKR	0.8

What does the data say about its RBD binding of 2nd Ab after 1st Ab (heat map)? Entry: mAb 46 (antibody, V domains shown, also called IgG 46; Antibody 46) VH: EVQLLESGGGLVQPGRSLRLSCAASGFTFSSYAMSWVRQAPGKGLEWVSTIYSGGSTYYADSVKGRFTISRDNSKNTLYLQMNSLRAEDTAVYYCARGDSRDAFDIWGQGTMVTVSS VL: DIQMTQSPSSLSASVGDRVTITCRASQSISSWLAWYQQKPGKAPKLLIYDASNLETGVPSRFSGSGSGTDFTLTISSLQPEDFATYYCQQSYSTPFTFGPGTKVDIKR 1.7
